Exercise: state measured IC50 for each of the compounds provided.
target: Human plasma kallikrein (Homo sapiens, UniProt P03952); construct: yields a heavy chain (371 amino acids) and a light chain (248 amino acids); test: Plasma Kallikrein Assay; settings: purified Human plasma kallikrein 0.5 nM, substrate Acetyl-K-P-R-AFC, pH 7.4
Sequence (P03952 391-638 limits assumed): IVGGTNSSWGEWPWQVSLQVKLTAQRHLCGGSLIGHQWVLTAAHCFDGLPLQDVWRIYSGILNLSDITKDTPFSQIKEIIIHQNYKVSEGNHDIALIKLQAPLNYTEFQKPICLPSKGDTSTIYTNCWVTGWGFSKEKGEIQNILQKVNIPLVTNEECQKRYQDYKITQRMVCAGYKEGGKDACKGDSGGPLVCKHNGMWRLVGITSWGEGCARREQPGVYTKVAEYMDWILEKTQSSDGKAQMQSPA
Sequence (P03952 20-390 partner limits assumed): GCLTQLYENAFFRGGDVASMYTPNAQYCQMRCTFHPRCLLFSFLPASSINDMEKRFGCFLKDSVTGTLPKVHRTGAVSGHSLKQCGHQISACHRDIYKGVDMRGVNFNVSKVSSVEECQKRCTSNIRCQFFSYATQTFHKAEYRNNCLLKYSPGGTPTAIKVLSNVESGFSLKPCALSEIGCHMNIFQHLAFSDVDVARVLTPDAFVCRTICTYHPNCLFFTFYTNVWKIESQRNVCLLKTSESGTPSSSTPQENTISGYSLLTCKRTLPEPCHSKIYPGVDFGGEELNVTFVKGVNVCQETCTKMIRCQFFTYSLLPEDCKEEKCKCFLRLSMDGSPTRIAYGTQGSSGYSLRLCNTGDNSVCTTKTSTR
Numbers only, in nM.

Known IC50 results, listed for orientation:
compound	targetUnderTest	recordedResult
CC(c1cnc(N2CCC2)cn1)n1cc(NC(=O)c2cncc(-c3c(C(F)F)ccc(Cl)c3F)n2)cn1 (single isomer, unassigned) [Example 30]	Human plasma kallikrein (Homo sapiens, UniProt P03952)	7.8
O=C(Nc1cnn(Cc2cnc(N3CCCC3CCO)nc2)c1)c1cncc(-c2c(C(F)F)ccc(Cl)c2F)n1 (single isomer, unassigned) [Example 102]	Human plasma kallikrein (Homo sapiens, UniProt P03952)	31.2
NC(=O)[C@@H]1CCCN1c1ccc(Cn2cc(NC(=O)c3cncc(-c4c(C(F)F)ccc(Cl)c4F)n3)cn2)cn1 [Example 116]	Human plasma kallikrein (Homo sapiens, UniProt P03952)	3.6
O=C(Nc1cnn(Cc2cnc(N3CCCC3CN3CCOCC3)nc2)c1)c1cncc(-c2c(C(F)F)ccc(Cl)c2F)n1 (stereo not shown) [Example 153]	Human plasma kallikrein (Homo sapiens, UniProt P03952)	1.1

For every record below, what is its IC50?
1. O=C(Nc1cnn(Cc2ccc(N3CCC(CO)C3)nc2)c1)c1cncc(-c2c(C(F)F)ccc(Cl)c2F)n1 (stereo not shown) [Example 132]
2. O=C(Nc1cnn(Cc2cnc(N3CC4CC4C3)nc2)c1)c1cncc(-c2c(C(F)F)ccc(Cl)c2F)n1 (stereo not shown) [Example 80]
3. CC(c1cnc(N(C)CC(=O)N(C)C)nc1)n1cc(NC(=O)c2cncc(-c3c(C(F)F)ccc(Cl)c3F)n2)cn1 (stereo not shown) [Example 72]
4. CC1(O)CN(C[C@@H]2[C@@H]3C[C@@H]3CN2c2ncc(Cn3cc(NC(=O)c4cncc(-c5c(C(F)F)ccc(Cl)c5F)n4)cn3)cn2)C1 [Example 145]
5. Cc1nc(N2CCC2)cnc1C(C)n1cc(NC(=O)c2cncc(-c3c(C(F)F)ccc(Cl)c3F)n2)cn1 (single isomer, unassigned) [Example 41]

49
6.7
2.5
0.5
2.1

---

molecular target: Human plasma kallikrein (Homo sapiens, UniProt P03952); construct: yields a heavy chain (371 amino acids) and a light chain (248 amino acids); assay: Plasma Kallikrein Assay; details: purified Human plasma kallikrein 0.5 nM, substrate Acetyl-K-P-R-AFC, pH 7.4
quantity: pIC50
Answers are plain numbers, as −log10 of the molar value.

Some compounds with known pIC50 results, for comparison:
compound	recordedResult
O=C(Nc1cnn(Cc2ccc(N3CCC3)nc2)c1)c1cncc(-c2c(OC(F)F)ccc(Cl)c2F)n1	7.76
CC(c1cnc(N2CC[C@H]2CN2CC[C@H](O)[C@@H](C)C2)nc1)n1cc(NC(=O)c2cncc(-c3c(C(F)F)ccc(Cl)c3F)n2)cn1 (stereo partly shown)	8.96
CN(CCO)c1ccc(Cn2cc(NC(=O)c3cncc(-c4c(C(F)F)ccc(Cl)c4F)n3)cn2)cn1	7.74

Would you kindly look at the next entry?
Give the reported value of pIC50 for this record: O=C(Nc1cnn(Cc2cnc(N3CCC4OCCC43)nc2)c1)c1cncc(-c2c(C(F)F)ccc(Cl)c2F)n1 (stereo not shown) [Example 75]
8.30

---

biological target: Human plasma kallikrein (Homo sapiens, UniProt P03952); construct: yields a heavy chain (371 amino acids) and a light chain (248 amino acids); assay: Plasma Kallikrein Assay; conditions: purified Human plasma kallikrein 0.5 nM, substrate Acetyl-K-P-R-AFC, pH 7.4
Category key, based on recorded IC50: low band (below 3 nM), middle band (3 nM to below 40 nM), high band (40 nM or more)

compound	targetUnderTest	category
CC(c1cnc(N2CC3CC3C2C#N)nc1)n1cc(NC(=O)c2cncc(-c3c(C(F)F)ccc(Cl)c3F)n2)cn1 (single isomer, unassigned) [Example 198]	Human plasma kallikrein (Homo sapiens, UniProt P03952)	high band
CC(c1cnc(N2C[C@H]3C[C@H]3C2C(=O)N(C)C)nc1)n1cc(NC(=O)c2cncc(-c3c(C(F)F)ccc(Cl)c3F)n2)cn1 (single isomer, unassigned) [Example 202]	Human plasma kallikrein (Homo sapiens, UniProt P03952)	low band
CC(c1cnc(N2CCN(C)C(=O)C2)nc1)n1cc(NC(=O)c2cncc(-c3c(C(F)F)ccc(Cl)c3F)n2)cn1 (stereo not drawn)	Human plasma kallikrein (Homo sapiens, UniProt P03952)	middle band
O=C(Nc1cnn(Cc2cnc(N3CCCC3C3(O)CC3)nc2)c1)c1cncc(-c2c(C(F)F)ccc(Cl)c2F)n1 (stereo not drawn)	Human plasma kallikrein (Homo sapiens, UniProt P03952)	high band
O=C(Nc1cnn([C@H](CO)c2cnc(N3CCC3)nc2)c1)c1cncc(-c2c(C(F)F)ccc(Cl)c2F)n1 (single isomer, unassigned)	Human plasma kallikrein (Homo sapiens, UniProt P03952)	high band
CC(c1cnc(N2CC[C@H]2CN2CC[C@@H](O)C[C@@H]2C)nc1)n1cc(NC(=O)c2cncc(-c3c(C(F)F)ccc(Cl)c3F)n2)cn1 (stereo partly drawn)	Human plasma kallikrein (Homo sapiens, UniProt P03952)	middle band
CN(CCN1CCCC1)c1ccc(Cn2cc(NC(=O)c3cncc(-c4c(C(F)F)ccc(Cl)c4F)n3)cn2)cn1	Human plasma kallikrein (Homo sapiens, UniProt P03952)	low band
C[C@@H](O)CNCC1CCCN1c1ncc(Cn2cc(NC(=O)c3cncc(-c4c(C(F)F)ccc(Cl)c4F)n3)cn2)cn1 (stereo partly drawn)	Human plasma kallikrein (Homo sapiens, UniProt P03952)	low band

Kindly state the category for this compound: [2H]C(C)(c1cnc(N2CCC2)nc1)n1cc(NC(=O)c2cncc(-c3c(C(F)F)ccc(Cl)c3F)n2)cn1 (single isomer, unassigned) [Example 43]
middle band

Each compound maps to one class by IC50. Which class for CC1C2CC2CN1c1ncc(C(CO)n2cc(NC(=O)c3cncc(-c4c(C(F)F)ccc(Cl)c4F)n3)cn2)cn1 (single isomer, unassigned) [Example 50] ?
high band

Could you tell me which band `COc1ncc(-c2c(C(F)F)ccc(Cl)c2F)nc1C(=O)Nc1cnn(Cc2cnc(N3CCC3)nc2)c1` belongs to?
middle band

Which of the defined bands does the recorded IC50 of `CC(=O)N1CC[C@H]2CN(c3ccc(Cn4cc(NC(=O)c5cncc(-c6c(C(F)F)ccc(Cl)c6F)n5)cn4)cn3)[C@H]2C1` sit within?
middle band
